pKi: −log10 of the molar value.
Quick note: these are pKi numbers for system: UniProt:Q9Y233
Sequence (Q9Y233 267-1055): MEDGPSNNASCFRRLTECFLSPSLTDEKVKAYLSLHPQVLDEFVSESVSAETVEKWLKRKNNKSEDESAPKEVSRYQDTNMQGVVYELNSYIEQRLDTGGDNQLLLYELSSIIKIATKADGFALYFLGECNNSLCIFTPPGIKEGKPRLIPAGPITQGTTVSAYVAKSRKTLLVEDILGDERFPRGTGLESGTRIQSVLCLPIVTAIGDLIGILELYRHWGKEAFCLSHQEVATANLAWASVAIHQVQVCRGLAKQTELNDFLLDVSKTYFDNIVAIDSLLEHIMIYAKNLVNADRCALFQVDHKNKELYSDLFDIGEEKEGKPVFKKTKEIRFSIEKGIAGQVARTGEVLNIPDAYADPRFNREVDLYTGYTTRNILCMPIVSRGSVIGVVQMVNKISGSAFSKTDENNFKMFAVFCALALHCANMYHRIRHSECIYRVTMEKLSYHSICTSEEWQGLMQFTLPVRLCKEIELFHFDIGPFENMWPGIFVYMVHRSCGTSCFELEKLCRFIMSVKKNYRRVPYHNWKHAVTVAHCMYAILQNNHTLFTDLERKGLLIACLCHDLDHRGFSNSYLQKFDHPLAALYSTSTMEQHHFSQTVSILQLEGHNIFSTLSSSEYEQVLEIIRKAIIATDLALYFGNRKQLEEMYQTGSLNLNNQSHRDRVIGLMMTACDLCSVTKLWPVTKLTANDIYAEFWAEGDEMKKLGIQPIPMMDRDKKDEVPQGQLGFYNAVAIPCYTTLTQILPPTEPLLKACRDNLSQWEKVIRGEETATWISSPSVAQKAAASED
Measured Metric: pKi

A. Cc1ccc2nc([C@@H]3C[C@H]3c3cc(-n4nc(C)nc4C)nc(C)n3)cn2c1 (relative stereo)
B. Cc1ccn2cc([C@@H]3C[C@H]3c3cc(-n4nc(C)nc4C)nc(C)n3)nc2c1 (relative stereo)
C. Cc1nc([C@@H]2C[C@H]2c2nc3ccccn3c2I)cc(-n2nc(C)nc2C)n1 (relative stereo)
Put the items in sequence by pKi, from largest down. Give your ranking as a list of the labels in the requested order. C, A, B
(C: 8.05, A: 7.62, B: 7.36)
